Source of measurements: paper PMC12368060

# experimental-system: GST-fused LC3B (UniProt Q9GZQ8 1-120)
# protocol: microfluidic diffusional sizing
Square brackets hold non-standard residues; d marks the D form. Ends that are not written are not given here. * marks the point of attachment. FITC = O=C1OC2(c3ccc(O)cc3Oc3cc(O)ccc32)c2ccc(NC(=S)*)cc21; pS = N[C@@H](COP(=O)(O)O)C(=O)O; Ahx = NCCCCCC(=O)O
recorded-endpoint: pKd
To interpret pKd, take it as minus log10 of a concentration measured in moles per litre.

Recorded pKd, per entry:
* {FITC-Ahx}-NSSGSSEDEFVEIRMAE [FITC-Ahx OPTN LIR peptide 169-185 (S177E)] | 4.40
* {FITC-Ahx}-NSSGSSED[pS]FVEIRMAE [FITC-Ahx OPTN LIR peptide 169-185 (pS177)] | 4.83
* {FITC-Ahx}-NSSGSSEDDFVEIRMAE [FITC-Ahx OPTN LIR peptide 169-185 (S177D)] | 4.44
* {FITC-Ahx}-NSSGSSEDSWVEIRMAE [FITC-Ahx OPTN LIR peptide 169-185 (F178W)] | 4.72

Then this binder:
Query: Sample {FITC-Ahx}-NSSGSSEDSFVEIRMAE [FITC-Ahx OPTN LIR peptide 169-185 (WT)] — what was its pKd?
Result: 4.17
